- Target of assay: Cyclin E/CDK2 (Homo sapiens, UniProt P24941)
- Run description: In vitro cyclin E/CDK2 kinase assay (33P-ATP, SPA beads), IC50 determination
Observation type: IC50 (nM)
The answer is to be given in nM; state only the numeric part.

Under Cyclin E/CDK2 (Homo sapiens, UniProt P24941): IC50 value of Cn1cc(-c2cnn3c(Nc4ccc(-n5ccnc5)cc4)cc(C4CCCNC4)nc23)cn1 (stereo not shown) ?
200
